Test system: Mus musculus
Assay: Anticonvulsant activity was measured from scMET test by delivering the drug intraperitoneally after 0.5 hr
Assay type: functional
Details: ip
MEASUREMENT_KIND: ED50

Sample records with ED50:
• O=C1NC(=S)NC1(c1ccccc1)c1ccccc1 = 1340 mg/kg
• NC1=NC(=O)[C@H](Cc2ccccc2)N1C(=O)OCc1ccccc1 = > 1000 mg/kg
• CC(C)C[C@H]1C(=O)N=C(N)N1C(=O)OCc1ccccc1 = 92.8 mg/kg
• CC(C)C[C@@H]1C(=O)N=C(N)N1C(=O)OCc1ccccc1 = 547 mg/kg
• CC(C)C[C@@H]1N=C(N)NC1=O = > 300 mg/kg

Input line: Supply reported ED50 belonging to this compound: NC1=NC(=O)[C@H](Cc2ccccc2)N1
Output line: > 1000 mg/kg

###

Test: Neurotoxicity was determined from the rotarod ataxia test for the compound by the intraperitoneal administration.
Format: toxicity, organism-based
Settings: mouse, in vivo, ip
MEASUREMENT_KIND: TD50 (mg/kg)
Please reply with the bare figure in mg/kg and do not write the unit itself.

Input line: Supply reported TD50 belonging to this molecule: CC(C)C[C@H]1C(=O)N=C(N)N1C(=O)OCc1ccccc1
Output line: 350

Hello, the source for this data is ChEMBL document CHEMBL1125842, in case you need it.
